Recorded measurements of %Inh, one per entry
tested on: PDGFRB; settings: concentration: 1 μM, replicates: in singlicate; n = 1;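 note: KINOMEscan kinase panel screen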
Express the reported value numerically, then name its unit.

Exam item: Can you share its %Inh? I mean this compound: Nc1nc(-c2ccc3c(N)n[nH]c3c2)cc(N2CCC[C@@H](C(=O)Nc3ccccc3)C2)n1.O=C(O)C(F)(F)F.O=C(O)C(F)(F)F [GSK2288359]
Marked response: 31%

Exam item: Can you share its %Inh? I mean this compound: Cn1cc(-c2ccc3c(c2)CCN3C(=O)Cc2cccc(C(F)(F)F)c2)c2c(N)ncnc21 [GSK2606414]
Marked response: 55%

Exam item: Can you share its %Inh? I mean this compound: Fc1cccc(COc2ccc(Nc3ncnc4nn5ccccc5c34)cc2Cl)c1 [GW689066]
Marked response: 13%

Exam item: Can you share its %Inh? I mean this compound: CCn1c(-c2ccncc2)nc2cnccc21 [SB-735216]
Marked response: 1%

Exam item: Can you share its %Inh? I mean this compound: O=C(NCCCN1CCCC1=O)c1cnc(NCc2cc(Cl)ccc2Cl)nc1NC1CCNCC1
Marked response: 0%

Exam item: Can you share its %Inh? I mean this compound: c1ccc(-c2ccc3c(-c4ccnc(Nc5ccc6c(c5)OCCO6)n4)cnn3n2)cc1 [GW818941]
Marked response: 4%

Exam item: Can you share its %Inh? I mean this compound: Oc1ccc2ncnc(Nc3ccc(OCc4ccccc4)cc3)c2c1 [GI262866]
Marked response: 21%

Exam item: Can you share its %Inh? I mean this compound: Nc1n[nH]c2nnc(-c3ccccc3)cc12 [SB-517389]
Marked response: 5%

Exam item: Can you share its %Inh? I mean this compound: NC(=O)c1sc(-n2cnc3ccccc32)cc1OCc1ccccc1F [GSK1024306]
Marked response: 2%

Exam item: Can you share its %Inh? I mean this compound: COc1ccc(NC(=O)Nc2ccc(C)c(-c3ccc(C(=O)Nc4ccncc4)cc3)c2)cc1 [GSK1398475]
Marked response: 100%

Exam item: Can you share its %Inh? I mean this compound: Fc1ccc(-c2ncn(CCCNCc3ccccc3)c2-c2ccncc2)cc1
Marked response: 24%

====

test system: ERK2; construct: gene MAPK1; details: concentration: 1 μM, replicates: in singlicate; n = 1
outcome measure: %Inh (%)
Value expressed in %; do not type the unit.

The following molecules have reported results that may help.
- molecule: "COc1ccc(Nc2nccc(N3CCC(NC(=O)Nc4ccc5c(c4)OCO5)C3)n2)cc1 (stereo not drawn)"
  %Inh (%): 12
- molecule: "NC(=O)c1sc(-n2cnc3ccccc32)cc1OCc1ccccc1F"
  %Inh (%): 0

Let's switch to this molecule now.
Exam item: Entry CSc1nn2c(=O)cc(N3CCOCC3)nc2n1Cc1cccc(Cl)c1Cl , system ERK2: what %Inh was measured?
Marked response: 17

====

test system: DAPK3; conditions: concentration: 1 μM, replicates: in singlicate; n = 1
Recorded measurements of %Inh, one per entry
Value expressed in %; do not type the unit.

The following compounds have reported results that may help.
- substance smiles: "O=C(NCCCN1CCCC1=O)c1cnc(NCc2cc(Cl)ccc2Cl)nc1NC1CCNCC1"
  measure unit: "%"
  %Inh: 0
- substance smiles: "N#Cc1ccc(Oc2ccc(Nc3ncnc4cc[nH]c34)cc2Cl)cc1"
  measure unit: "%"
  %Inh: 15
- substance smiles: "COC(=O)c1c(-c2ccccc2)c2cc(Cl)ccc2c(=O)n1Cc1ccc(S(C)(=O)=O)cc1"
  measure unit: "%"
  %Inh: 0
- substance smiles: "CNc1nccc(-c2c(-c3ccc(F)cc3)ncn2C2CCN(C)CC2)n1"
  measure unit: "%"
  %Inh: 25

Let's switch to this compound now.
Exam item: Entry COc1ccc(NC(=O)c2ccc(-c3cc(-c4nnc(C)o4)ccc3C)cc2)cc1 , system DAPK3: what %Inh was measured?
Marked response: 13
